- System: human cervical carcinoma cell line KB/HeLa
- Assay Summary: XTT proliferation assay, KB/HeLa
- Type: cell-based
- Condition Set: KB/HeLa cells, 45 h incubation
Items are presented alongside their recorded log10 of EC50.
Kindly note that the scale is log10 and the underlying EC50 is in µg/mL.

The cases that follow already have their log10 of EC50 on record.
                            chemical_string  readout_value
0  Cc1cccc(N2CCN(C(=O)c3ccnn3-c3ccccc3)CC2)n1          -1.40
1   CSc1nsc(SC)c1C(=O)N1CCN(c2cccc(C)n2)CC1           0.43
2  Cc1cccc(N2CCN(C(=O)c3cccc4c3-c3ccccc3C4=O)CC2)n1           0.41

API: value(readout=log10 of EC50, system=human cervical carcinoma cell line KB/HeLa) for record "COc1cccc(N2CCN(C(=O)C3c4ccccc4Oc4ccccc43)CC2)c1"
-0.20

Param readout= log10 of EC50; system= human cervical carcinoma cell line KB/HeLa; entry= "O=C(c1ccnn1-c1ccccc1)N1CCN(c2cccc(O)c2)CC1" ; returns value.
-0.83

----------
- System: human cervical carcinoma cell line KB/HeLa
- Assay Summary: XTT proliferation assay, KB/HeLa
- Type: cell-based
- Condition Set: KB/HeLa cells, 45 h incubation
Result Type: EC50 (µg/mL)
Expressed in µg/mL, but write only the number.

                            chemical_string  readout_value
0  COc1cc(OC)cc(N2CCN(C(=O)C3c4ccccc4Oc4ccccc43)CC2)c1           0.08
1  COc1cc(OC)cc(N2CCN(C(=O)c3cccc4c3Cc3ccccc3-4)CC2)c1          0.613
2  COc1cc(OC)cc(N2CCN(C(=O)c3nccc4ccccc34)CC2)c1          0.929
3  COc1cc(OC)cc(N2CCN(C(=O)c3cccc4c3-c3ccccc3C4=O)CC2)c1          0.555
4  O=C1c2ccccc2-c2c1cccc2C(=O)N1CCN(c2cccc(O)c2)CC1           4.32

What does the data say about its EC50? Entry: "Cc1cc(C)cc(N2CCN(C(=O)c3cnnc4ccccc34)CC2)c1"
1.21

Tell me the measured EC50 of "COc1cccc(N2CCN(C(=O)c3ccnn3-c3ccccc3)CC2)c1" , please.
0.012

Given the entry "COc1cccc(N2CCN(C(=O)C3c4ccccc4-c4ccccc43)CC2)c1" , report its measured EC50.
0.166

----------
- System: ovarian adenocarcinoma cell line SKOV-3
- Assay Summary: XTT proliferation assay, SKOV-3
- Format: cell-based
- Condition Set: Homo sapiens, SK-OV-3; SKOV-3 cells, 45 h incubation; read-out: XTT proliferation assay, EC50, SKOV3
Result Type: EC50 (mg/L)
Give the quantity in mg/L, number only.

What does the data say about its EC50? Entry: "COc1cccc(N2CCN(C(=O)C3c4ccccc4Oc4ccccc43)CC2)c1"
0.293

Value lookup for EC50; key = "CSc1nsc(SC)c1C(=O)N1CCN(c2cccc(C)n2)CC1"
1.01

----------
- Test system: bovine tubulin
- Assay Summary: Tubulin polymerization assay
- Format: biochemical
- Condition Set: bovine tubulin with 30% MAPs; average of two independent experiments
- Protocol: Selected substances were tested for inhibition of the polymerization of bovine tubulin in an in-vitro test. In this test, tubulin purified by cycles of polymerization and depolymerization is employed, which is polymerized by addition of GTP and warming. In Table 2, the EC50 values of the inhibition of polymerization of tubulin with 30% associated proteins (MAPs) and of MAP-free tubulin are indicated. […]
Inhibition of tubulin polymerization, EC50, with 30% MAPs overview
// units = µg/mL; emit number, no label

Known Inhibition of tubulin polymerization, EC50, with 30% MAPs results, listed for orientation:
                                   compound  readout_value
0  COc1cccc(N2CCN(C(=O)C3c4ccccc4-c4ccccc43)CC2)c1 [Compound 10]           1.18
1  O=C1c2ccccc2-c2c1cccc2C(=O)N1CCN(c2cccc(O)c2)CC1 [Compound 3]           4.77
2  COc1cccc(N2CCN(C(=O)c3ccnn3-c3ccccc3)CC2)c1 [Compound 14]           0.46
3  Cc1cccc(N2CCN(C(=O)c3ccnn3-c3ccccc3)CC2)n1 [Compound 15]           0.88
4  COc1cc(OC)cc(N2CCN(C(=O)c3cccc4c3-c3ccccc3C4=O)CC2)c1 [Compound 1]           0.86

Recorded Inhibition of tubulin polymerization, EC50, with 30% MAPs of COc1cccc(N2CCN(C(=O)C3c4ccccc4Oc4ccccc43)CC2)c1 [Compound 13] , please.
0.73

Consider the compound shown here: O=C(c1ccnn1-c1ccccc1)N1CCN(c2cccc(O)c2)CC1 [Compound 16] What is its recorded Inhibition of tubulin polymerization, EC50, with 30% MAPs?
4.20

Record request: Inhibition of tubulin polymerization, EC50, with 30% MAPs value, item COc1cc(OC)cc(N2CCN(C(=O)C3c4ccccc4Oc4ccccc43)CC2)c1 [Compound 12]
1.16

Please look up its Inhibition of tubulin polymerization, EC50, with 30% MAPs: COc1cc(OC)cc(N2CCN(C(=O)c3nccc4ccccc34)CC2)c1 [Compound 8]
5.66

----------
- Test system: lung carcinoma cell line NCI-H460
- Assay Summary: XTT proliferation assay, NCI-H460
- Assay type: cell-based
- Condition Set: Homo sapiens; NCI-H460 cells, 45 h incubation
Result Type: EC50

See these solved cases before continuing.
>>> print(df.to_string())
                            chemical_string  readout_value
0  COc1cccc(N2CCN(C(=O)C3c4ccccc4Oc4ccccc43)CC2)c1     0.29 µg/mL
1  COc1cc(OC)cc(N2CCN(C(=O)c3nccc4ccccc34)CC2)c1    0.439 µg/mL
2  COc1cc(OC)cc(N2CCN(C(=O)C3c4ccccc4Oc4ccccc43)CC2)c1    0.064 µg/mL

# evaluate next
Need EC50 of "O=C(c1ccnn1-c1ccccc1)N1CCN(c2cccc(O)c2)CC1" , thanks.
0.087 µg/mL

----------
- System: lung carcinoma cell line NCI-H460
- Assay Summary: XTT proliferation assay, NCI-H460
- Assay type: cell-based
- Condition Set: Homo sapiens; NCI-H460 cells, 45 h incubation
Recorded EC50, one value per entry.
The figure you give is taken to be in µg/mL; do not add the unit.

Solved entries (count: 5):
>>> df
                            chemical_string                      tested_system  readout_value
0  O=C1c2ccccc2-c2c1cccc2C(=O)N1CCN(c2cccc(O)c2)CC1  lung carcinoma cell line NCI-H460          0.853
1  Cc1cc(C)cc(N2CCN(C(=O)c3cnnc4ccccc34)CC2)c1  lung carcinoma cell line NCI-H460          0.348
2  Cc1cccc(N2CCN(C(=O)c3cccc4c3-c3ccccc3C4=O)CC2)n1  lung carcinoma cell line NCI-H460          0.886
3  COc1cc(OC)cc(N2CCN(C(=O)c3cccc4c3-c3ccccc3C4=O)CC2)c1  lung carcinoma cell line NCI-H460          0.312
4   CSc1nsc(SC)c1C(=O)N1CCN(c2cccc(C)n2)CC1  lung carcinoma cell line NCI-H460           1.54

Given the molecule "COc1cc(OC)cc(N2CCN(C(=O)c3cccc4c3Cc3ccccc3-4)CC2)c1" , what is its reported EC50?
0.427

I am curious: what EC50 value has been reported for "Cc1cccc(N2CCN(C(=O)c3ccnn3-c3ccccc3)CC2)n1" ?
0.024

What does the record list as EC50 for "COc1cccc(N2CCN(C(=O)c3ccnn3-c3ccccc3)CC2)c1" ?
0.005

Value lookup for EC50; key = "COc1cccc(N2CCN(C(=O)C3c4ccccc4-c4ccccc43)CC2)c1"
0.085

----------
Result Type: melting point (°C)
All answers are understood in °C, so give the number only.

Using the record for Cc1cc(C)cc(N2CCN(C(=O)c3cnnc4ccccc34)CC2)c1 [Compound 5] , report its melting point.
114

----------
- Tested on: ovarian adenocarcinoma cell line SKOV-3
- Assay Summary: XTT proliferation assay, SKOV-3
- Format: cell-based
- Condition Set: Homo sapiens, SK-OV-3; SKOV-3 cells, 45 h incubation; read-out: XTT proliferation assay, EC50, SKOV3
Please use rule met for EC50 under 0.3 mg/L and rule not met for everything else, ties included.

                            chemical_string   class_label
0  COc1cc(OC)cc(N2CCN(C(=O)c3cccc4c3-c3ccccc3C4=O)CC2)c1  rule not met
1  COc1cc(OC)cc(N2CCN(C(=O)c3cccc4c3Cc3ccccc3-4)CC2)c1  rule not met
2  COc1cc(OC)cc(N2CCN(C(=O)C3c4ccccc4Oc4ccccc43)CC2)c1      rule met
3  Cc1cccc(N2CCN(C(=O)c3cccc4c3-c3ccccc3C4=O)CC2)n1  rule not met
4  Cc1cc(C)cc(N2CCN(C(=O)c3cnnc4ccccc34)CC2)c1  rule not met

API: query returns whether the compound falls strictly under 0.3 mg/L in EC50. Query: "O=C(c1ccnn1-c1ccccc1)N1CCN(c2cccc(O)c2)CC1"
rule met

Would you kindly verify if EC50 of "COc1cccc(N2CCN(C(=O)C3c4ccccc4-c4ccccc43)CC2)c1" is strictly less than 0.3 mg/L?
rule met
